- assay: In vivo pharmacokinetic (PK) and blood brain barrier (BBB) studies, cassette dosing
- Parameters: species or system male Sprague-Dawley rats
- test-settings: male, Sprague-Dawley, brain/plasma, intravenous, tail vein injection, rat, read-out: AUC brain/AUC plasma
readout-label: Kp

> print(dat)
                                   compound  readout.label  endpoint.result
1  Cc1c(O)c(=O)ccn1C [Deferiprone, 3-hydroxy-1,2-dimethyl-1H-pyridin-4-one]             Kp             0.79
2              Cc1c(O)c(=O)c(CC(F)(F)F)cn1C             Kp             0.65
3                 Cn1ccc(=O)c(O)c1CC(F)(F)F             Kp              0.6

###

- assay: In vivo pharmacokinetic (PK) and blood brain barrier (BBB) studies, cassette dosing
- Design: species or system male Sprague-Dawley rats
- test-settings: male, Sprague-Dawley, brain/plasma, intravenous, 5 min, tail vein injection, rat, read-out: Brain/Plasma ratio at 5 min
readout-label: Kp at 5 min

> print(dat)
                                   molecule  endpoint.result
1                 Cn1ccc(=O)c(O)c1CC(F)(F)F             0.46
2  Cc1c(O)c(=O)ccn1C [Deferiprone, 3-hydroxy-1,2-dimethyl-1H-pyridin-4-one]             0.45
3              Cc1c(O)c(=O)c(CC(F)(F)F)cn1C              0.5
